test system: phosphorylation of ERK, KRAS G12C in NCJ-H358 cells; assay: pERK inhibition assay, KRAS G12C; format: cell-based, human; conditions: Homo sapiens, 4 hours
pIC50: −log10 of the molar value.
Output T for pIC50 not less than 8; output F otherwise.

input: Would you say CCn1c(-c2cc(N3CCN(C)CC3)cnc2[C@H](C)OC)c2c3cc(c(F)cc31)-c1csc(n1)C[C@H](NC(=O)[C@H](C(C)C)N1CCC3(CN(C(=O)[C@H](F)Cl)C3)C1=O)C(=O)N1CCC[C@H](N1)C(=O)OCC(C)(C)C2 (atropisomer, axis not shown; (M)) shows pIC50 at minimum 8?
output: T

input: Would you say CC(C)[C@@H](C(=O)N[C@H]1Cc2cc(O)cc(c2)-c2ccc3c(C(C)(C)C#N)cn(c3c2)CC(C)(C)COC(=O)[C@@H]2CCCN(N2)C1=O)N1CCC2(CN(C(=O)CCl)C2)C1=O [RM44, reference compound] shows pIC50 at minimum 8?
output: F

input: Would you say CCn1c(-c2cc(N3CCOCC3)cnc2[C@H](C)OC)c2c3cc(c(F)cc31)-c1csc(n1)C[C@H](NC(=O)[C@H](C(C)C)N1CC[C@@]3(CCN(C(=O)[C@H](F)Cl)C3)C1=O)C(=O)N1CCC[C@H](N1)C(=O)OCC(C)(C)C2 (atropisomer, axis not shown; (M)) shows pIC50 at minimum 8?
output: T

input: Would you say CO[C@@H](C)c1ncc(N2CCN(CC(F)(F)F)CC2)cc1-c1c2c3cc(c(F)cc3n1CC(F)(F)F)-c1csc(n1)C[C@H](NC(=O)[C@H](C(C)C)N1CCC3(CCN(C(=O)[C@H](F)Cl)CC3)C1=O)C(=O)N1CCC[C@H](N1)C(=O)OCC(C)(C)C2 (atropisomer, axis not shown; (M)) shows pIC50 at minimum 8?
output: F

input: Would you say CCn1c(-c2cc(N3CCOCC3)cnc2[C@H](C)OC)c2c3cc(c(F)cc31)-c1csc(n1)C[C@H](NC(=O)[C@H](C(C)C)N(C)C(=O)C1(F)CCN(C(=O)[C@H](F)Cl)CC1)C(=O)N1CCC[C@H](N1)C(=O)OCC(C)(C)C2 (atropisomer, axis not shown; (M)) shows pIC50 at minimum 8?
output: T

input: Would you say CO[C@@H](C)c1ncc(N2CCOCC2)cc1-c1c2c3cc(c(F)cc3n1CC(F)(F)F)-c1csc(n1)C[C@H](NC(=O)[C@H](C(C)C)N(C)C(=O)[C@H]1CCN(C(=O)[C@H](F)Cl)C1)C(=O)N1CCC[C@H](N1)C(=O)OCC(C)(C)C2 (atropisomer, axis not shown; (M)) shows pIC50 at minimum 8?
output: T

input: Would you say CO[C@@H](C)c1ncc(N2CCN(C)CC2)cc1-c1c2c3cc(c(F)cc3n1CC(F)(F)F)-c1csc(n1)C[C@H](NC(=O)[C@H](C(C)C)N(C)C(=O)C1(F)CCN(C(=O)[C@H](F)Cl)CC1)C(=O)N1CCC[C@H](N1)C(=O)OCC(C)(C)C2 (atropisomer, axis not shown; (M)) shows pIC50 at minimum 8?
output: T

---

target: KRAS G12D binding to BRAF (Homo sapiens (Human), UniProt P01116+P62937, G12D); assay: KRAS-BRAF with CYPA (500 nM) interaction assay (TR-FRET), G12D
Sequence (P01116-2 other isoform, or with tags, fused parts or gaps G12D): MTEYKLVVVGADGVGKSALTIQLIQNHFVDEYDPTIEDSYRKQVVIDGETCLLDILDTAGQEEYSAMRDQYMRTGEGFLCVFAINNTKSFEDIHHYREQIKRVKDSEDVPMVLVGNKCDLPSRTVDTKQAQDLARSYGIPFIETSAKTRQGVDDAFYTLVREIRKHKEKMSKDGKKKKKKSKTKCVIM
Sequence (P62937 whole entry): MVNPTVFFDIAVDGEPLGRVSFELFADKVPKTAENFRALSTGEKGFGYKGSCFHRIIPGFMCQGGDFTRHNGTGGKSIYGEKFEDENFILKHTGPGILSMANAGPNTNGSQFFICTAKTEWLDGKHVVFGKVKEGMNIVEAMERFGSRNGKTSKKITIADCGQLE
metric name: IC50 (nM)
Record the value in nM, omitting the unit from your answer.

input: Given the entry CO[C@@H](C)c1ncc(N2CCN(CC(F)(F)F)CC2)cc1-c1c2c3cc(c(F)cc3n1CC(F)(F)F)-c1csc(n1)C[C@H](NC(=O)[C@H](C(C)C)N(C)C(=O)C1(F)CCN(C(=O)[C@H](F)Cl)CC1)C(=O)N1CCC[C@H](N1)C(=O)OCC(C)(C)C2 (atropisomer, axis not shown; (M)) [Example 44] , report its measured IC50.
output: 1340

input: Given the entry CCn1c(-c2cc(N3CCN(C)CC3)cnc2[C@H](C)OC)c2c3cc(c(F)cc31)-c1csc(n1)C[C@H](NC(=O)[C@H](C(C)C)N1CCCC3(CCN(C(=O)[C@H](F)Cl)CC3)C1=O)C(=O)N1CCC[C@H](N1)C(=O)OCC(C)(C)C2 (atropisomer, axis not shown; (M)) [Example 36] , report its measured IC50.
output: 3940
